System: MOLT-3 cells
Method notes: Toxicity in MOLT-3 cells, changes in cell morphology by microscopic examination
Type: cell-based, human
Measurement conditions: Exp. 3
Reported endpoint: MIC (concentration causing minimal changes in cell morphology) (μg/ml)
Answer in μg/ml, number only, no unit symbol.

So what's the measured MIC (concentration causing minimal changes in cell morphology) for this one? [O-][n+]1ccccc1[S+]([O-])Cc1ccccc1 (stereo not shown) [Compound 5, 2-(Benzylsulfinyl)-pyridine-N-oxide]
100

Follow-up entry: O=S(=O)(Cc1ccccc1)c1cccc[n+]1[O-] [Compound 6, 2-(Benzylsulfonyl)-pyridine-N-oxide]
100

----------
Test system: HIV-2 (ROD)
Method notes: Inhibition of HIV-2 syncytium formation in CEM cells
Type: cell-based
Measurement conditions: CEM cells, syncytium formation, day four post infection
Reported endpoint: EC50 (ug/ml) HIV-2

Consider the following illustrative entries.
# Molecule, Result
records = [
    ("CC(C)c1ccc(C(C)C)c(CS(=O)(=O)c2cccc[n+]2[O-])c1", "≧4 ug/ml"),
    ("O=[N+]([O-])c1ccc(CS(=O)(=O)c2cccc[n+]2[O-])c(Cl)c1", "2.9 µg/mL"),
    ("CCC(C)(C)c1ccc(CS(=O)(=O)c2cccc[n+]2[O-])cc1", "3.4 µg/mL"),
    ("Cc1ccc[n+]([O-])c1S(=O)(=O)Cc1ccccc1", ">20.0 µg/mL"),
    ("Cc1ccc(C[S+]([O-])c2cccc[n+]2[O-])cc1 (stereo not shown)", ">4.0 µg/mL"),
    ("O=S(=O)(Cc1cccc(Br)c1)c1cccc[n+]1[O-]", "≧4 ug/ml"),
    ("Cc1ccc(C)c(C(Cl)S(=O)(=O)c2c(Cl)ccc[n+]2[O-])c1 (stereo not shown)", ">4.0 µg/mL"),
    ("COc1ccc(C[S+]([O-])c2cccc[n+]2[O-])cc1 (stereo not shown)", ">0.8 µg/mL"),
    ("Cc1ccc(CS(=O)(=O)c2c(C)ccc[n+]2[O-])c(C)c1", "≧20 ug/ml"),
    ("O=S(=O)(Cc1ccc(-c2ccccc2)cc1)c1cccc[n+]1[O-]", "4.0 µg/mL"),
]

// next item, EC50 (ug/ml) HIV-2 requested
What value of EC50 (ug/ml) HIV-2 has been reported for the following molecule? "Cc1ccc(CS(=O)(=O)c2cccc[n+]2[O-])cc1[N+](=O)[O-]"
2.4 µg/mL

Recorded values, source patent US7064139B2.
